Entry source: ChEMBL document CHEMBL3886816

Experimental target: Bromodomain-containing protein 3 (Homo sapiens, UniProt Q15059)
Sequence (Q15059 whole entry): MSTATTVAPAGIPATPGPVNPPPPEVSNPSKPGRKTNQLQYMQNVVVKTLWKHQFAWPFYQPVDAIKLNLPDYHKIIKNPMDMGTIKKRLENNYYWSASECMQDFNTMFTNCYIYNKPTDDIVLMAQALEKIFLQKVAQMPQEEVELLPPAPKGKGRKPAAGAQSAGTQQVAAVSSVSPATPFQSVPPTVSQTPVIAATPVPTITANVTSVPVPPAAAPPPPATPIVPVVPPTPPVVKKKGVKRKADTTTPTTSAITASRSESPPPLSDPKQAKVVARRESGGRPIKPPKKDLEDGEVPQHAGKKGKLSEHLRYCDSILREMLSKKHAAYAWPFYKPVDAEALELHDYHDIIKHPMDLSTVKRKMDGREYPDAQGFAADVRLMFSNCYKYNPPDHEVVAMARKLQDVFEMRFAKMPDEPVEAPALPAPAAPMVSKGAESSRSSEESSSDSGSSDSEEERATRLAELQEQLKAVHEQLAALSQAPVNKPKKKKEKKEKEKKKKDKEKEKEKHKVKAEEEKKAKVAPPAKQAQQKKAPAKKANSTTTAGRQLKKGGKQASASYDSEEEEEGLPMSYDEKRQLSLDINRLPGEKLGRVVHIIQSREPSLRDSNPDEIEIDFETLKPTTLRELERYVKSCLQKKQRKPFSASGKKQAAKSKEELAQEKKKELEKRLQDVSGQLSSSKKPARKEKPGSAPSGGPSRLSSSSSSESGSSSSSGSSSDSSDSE
Assay method text: Time-Resolved Fluorescence Resonance Energy Transfer (TR-FRET) Assay: The assay was carried out in binding mixtures of the bromodomain protein, 0-10 μM compounds and tetra-acetylated histone peptide (SGRGAC.KGGAC.KGLGAC.KGGAAC.[…]-biotin) in buffer containing 25 mM HEPES pH 7.5, 100 mM NaCl, 0.1% BSA, 0.05% CHAPS, and detection reagents. […] Upon further incubation for 1 hr, the TR-FRET signals were recorded on a BMG PHERAstar FS instrument.
Measured property: pIC50
Note on pIC50: it is the negative log10 of concentration, concentration in mol/L.

Provide measured pIC50 value, entry: Cc1noc(C)c1-c1ccc2c(c1)C(N)(c1ccccc1)C(=O)N2 (single isomer, unassigned)
7.46

###

Experimental target: Bromodomain-containing protein 4 (Homo sapiens)
Assay method text: Time-Resolved Fluorescence Resonance Energy Transfer (TR-FRET) Assay: The assay was carried out in binding mixtures of the bromodomain protein, 0-10 μM compounds and tetra-acetylated histone peptide (SGRGAC.KGGAC.KGLGAC.KGGAAC.[…]-biotin) in buffer containing 25 mM HEPES pH 7.5, 100 mM NaCl, 0.1% BSA, 0.05% CHAPS, and detection reagents. […] Upon further incubation for 1 hr, the TR-FRET signals were recorded on a BMG PHERAstar FS instrument.
Reported pIC50 values for the following compounds.
Lab note: report pIC50 as minus log10 of the concentration in molar units, number only.

Report pIC50, nothing else, for this compound: Cc1noc(C)c1-c1ccc2c(c1)C(N)(c1ccccc1)C(=O)N2 (single isomer, unassigned)
6.82

Could you please provide reported pIC50 for Cc1noc(C)c1-c1ccc2c(c1)C(C1CCCCC1)(N1CCN(C)CC1)C(=O)N2 (configuration not stated) ? Thanks!
6.96

Tell me pIC50 reported for Cc1noc(C)c1-c1ccc2c(c1)C(O)(C1CCCCCC1)C(=O)N2 (configuration not stated)
7.01

Tell me pIC50 reported for Cc1noc(C)c1-c1ccc2c(c1)C(C1CCCC1)(N1CCN(C)CC1)C(=O)N2 (configuration not stated)
6.74

Kindly indicate its recorded pIC50. Item: C=CCCCC1(O)C(=O)Nc2ccc(-c3c(C)noc3C)cc21 (configuration not stated)
6.27

For C=CCCC1(O)C(=O)Nc2ccc(-c3c(C)noc3C)cc21 (configuration not stated) , write its pIC50.
6.37

Give me measured pIC50, please, for this compound: Cc1noc(C)c1-c1ccc2c(c1)C(OCCO)(C1CCCCC1)C(=O)N2 (configuration not stated)
7.09

###

Experimental target: Bromodomain-containing protein 2 (Homo sapiens)
Sequence (P25440 whole entry): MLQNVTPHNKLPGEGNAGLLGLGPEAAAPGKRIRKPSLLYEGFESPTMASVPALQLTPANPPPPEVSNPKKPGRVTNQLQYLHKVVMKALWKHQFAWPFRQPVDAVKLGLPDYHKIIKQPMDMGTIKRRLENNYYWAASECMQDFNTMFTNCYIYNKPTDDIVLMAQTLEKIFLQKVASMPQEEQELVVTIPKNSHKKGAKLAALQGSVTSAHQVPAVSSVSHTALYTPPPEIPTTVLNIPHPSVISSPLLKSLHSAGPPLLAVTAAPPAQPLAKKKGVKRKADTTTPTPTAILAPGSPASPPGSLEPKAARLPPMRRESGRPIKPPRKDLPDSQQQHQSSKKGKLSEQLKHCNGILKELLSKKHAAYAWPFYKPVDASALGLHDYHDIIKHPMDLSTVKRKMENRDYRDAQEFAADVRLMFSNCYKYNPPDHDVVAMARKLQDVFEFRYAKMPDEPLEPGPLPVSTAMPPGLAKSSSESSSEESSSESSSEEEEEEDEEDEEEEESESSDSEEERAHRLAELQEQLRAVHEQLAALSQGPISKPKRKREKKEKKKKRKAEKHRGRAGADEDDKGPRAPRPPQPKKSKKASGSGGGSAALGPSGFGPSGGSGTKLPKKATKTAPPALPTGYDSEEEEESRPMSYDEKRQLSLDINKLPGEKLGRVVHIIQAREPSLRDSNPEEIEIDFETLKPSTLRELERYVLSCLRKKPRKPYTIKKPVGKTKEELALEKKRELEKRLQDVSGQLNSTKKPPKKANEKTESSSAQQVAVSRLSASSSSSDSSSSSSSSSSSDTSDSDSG
Assay method text: Time-Resolved Fluorescence Resonance Energy Transfer (TR-FRET) Assay: The assay was carried out in binding mixtures of the bromodomain protein, 0-10 μM compounds and tetra-acetylated histone peptide (SGRGAC.KGGAC.KGLGAC.KGGAAC.[…]-biotin) in buffer containing 25 mM HEPES pH 7.5, 100 mM NaCl, 0.1% BSA, 0.05% CHAPS, and detection reagents. […] Upon further incubation for 1 hr, the TR-FRET signals were recorded on a BMG PHERAstar FS instrument.
Measured property: IC50 (nM)
Lab book: enter the figure in nM, no units written.

Please report the measured IC50 for Cc1noc(C)c1-c1ccc2c(c1)C(N)(c1ccccc1)C(=O)N2 (single isomer, unassigned) tested on Bromodomain-containing protein 2 (Homo sapiens).
55
